Values were extracted from paper PMC8713164.

system under test: CYP3A4 (Homo sapiens, UniProt P08684)
Construct: Cyprotex, contract assay
Sequence (P08684 whole entry): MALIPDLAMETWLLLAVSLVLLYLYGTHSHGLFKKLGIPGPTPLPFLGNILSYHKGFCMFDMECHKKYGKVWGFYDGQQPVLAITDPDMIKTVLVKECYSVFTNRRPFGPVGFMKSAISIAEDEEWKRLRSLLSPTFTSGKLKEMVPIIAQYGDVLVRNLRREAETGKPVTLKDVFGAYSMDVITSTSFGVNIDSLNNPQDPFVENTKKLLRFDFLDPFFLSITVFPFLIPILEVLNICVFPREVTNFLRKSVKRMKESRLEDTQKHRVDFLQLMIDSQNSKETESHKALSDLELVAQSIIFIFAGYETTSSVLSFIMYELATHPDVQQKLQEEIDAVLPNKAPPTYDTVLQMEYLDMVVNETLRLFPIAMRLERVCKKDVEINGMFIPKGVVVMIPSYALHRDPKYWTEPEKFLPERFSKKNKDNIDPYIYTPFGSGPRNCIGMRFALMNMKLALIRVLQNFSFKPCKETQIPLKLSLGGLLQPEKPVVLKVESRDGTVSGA
procedure details: CYP3A4 inhibition
Assay type: in vitro ADME
outcome measure: IC50

Query block: What does the record list as IC50 for `CCOc1ccc(-c2nnc([C@H]3C[C@H](NC(=O)c4cccc5nccnc45)C3)n2-c2ccccc2F)nc1` ?
Result block: > 25 µM

---

System: WNT/β-catenin signaling
procedure details: cellular (HEK293) WNT/β-catenin signaling luciferase reporter assay
Assay type: cell-based, human
setup conditions: read-out: IC50 HEK293; HEK293 WNT/β-catenin signaling reporter assay; triplicates; 24: averages of multiple independent measurements
Can you tell me IC50 for the items I'm about to list?

compound="CCOc1ccc(-c2nnc([C@H]3C[C@H](NC(=O)c4ccnc5cc(F)cnc45)C3)n2-c2ccccn2)nc1 [Compound 16b]" result="9 nM"
compound="CCOc1ccc(-c2nnc([C@H]3C[C@H](NC(=O)c4ccnc5cc(F)cnc45)C3)n2-c2ccncc2)nc1 [Compound 18b]" result="6.4 nM"
compound="CCOc1ccc(-c2nnc([C@H]3C[C@H](NC(=O)c4ccnc5cc(F)cnc45)C3)n2-c2cccnc2)nc1 [Compound 17b]" result="9 nM"
compound="O=C(N[C@H]1C[C@H](c2nnc(-c3ccccn3)n2-c2ccccc2F)C1)c1cccc2nccnc12 [Compound 30a]" result="0.286 nM"

Query block: Which IC50 value belongs to Cc1cccc(-c2nnc([C@H]3C[C@H](NC(=O)c4cc(F)cc5nccnc45)C3)n2-c2ccccc2F)n1 [Compound 31b] ?
Result block: 0.169 nM
